src = PubChem BioAssay (NCI)

Catalogue of TGI values
System: SF-295 CNS
assay text: NCI tumour cell line growth inhibition, 48 h
recorded endpoint: TGI

- Cc1ccc(-c2cc(-c3ccc(Cl)cc3)nc(/N=C3\C(=O)N(CN4CCOCC4)c4ccccc43)n2)cc1: > 100 µM
- Cc1cccc(O)c1-c1nnc(CCCCCCCCc2nnc(-c3c(C)cccc3O)n2N)n1N: > 100 µM
- CC1CN(c2ccc(Cl)cc2)CC(C)(C)OC(=O)O1 (centres undefined): > 100 µM
- C[N+](C)(C)CC(=O)N/N=C(\CCC(=O)NCCc1ccccc1)CC(=O)c1ccccc1: > 100 µM
- CC(=O)NC(CCCCN(Cc1ccccc1)C(=O)NCCCl)C(=O)NCc1ccccc1 (centres undefined): > 100 µM
- C=C1C(=O)OC2/C=C(\C)C3OC3/C=C(/C(=O)OC)C(O)C(OC(=O)C3(C)OC3C)C12 (centres undefined): 27 µM
- O=C(NCCc1ccccc1)[C@H]1CCCC[C@@H]1CCO: > 100 µM
- C[C@H](N)C(=O)N[C@@H]1[C@H]2C(=C(O)C[C@@H](O)[C@@H]2O)C(=O)O[C@]1(C)C(Cl)Cl: 1.31 µM
- COC(=O)C(Cc1ccccc1)NC(=O)C(CCC(=O)OCc1ccccc1)NC(=O)OC(C)(C)C (centres undefined): > 100 µM
